assay.method.text: Distribution in brain in mice, brain homogenate
Assay type: in vivo, Kunming mice
test.context: Kunming, mouse, iv, brain, analyte intact prodrug, before hydrolysis, 10 mg/kg tail vein

{"compound": "CC(C)Cc1ccc(C(C)C(=O)OC(COC(=O)CCC(=O)OCC2OC(O)C(O)C(O)C2O)C2OC(=O)C(O)=C2O)cc1 (stereo not shown)", "MRT": "2.73 h"}

###

assay.method.text: In vitro chemical stability in phosphate buffers
Assay type: physicochemical
test.context: pH 2.5 phosphate buffer, 37 °C
result.type: half-life at 50 μg/ml (h)

{"compound": "CC(C)Cc1ccc(C(C)C(=O)OC(COC(=O)CCC(=O)OCC2OC(O)C(O)C(O)C2O)C2OC(=O)C(O)=C2O)cc1 (stereo not shown)", "result.type": "half-life at 50 μg/ml", "endpoint.unit": "h", "recorded.result": 18.1}

Data provenance: paper PMC6058731
